Listed next: entries and their corresponding EC50.
# Test system: Human immunodeficiency virus 1
# assay protocol: Antiviral activity against HIV-1 harboring Y188L mutant infected in human MT4 cells assessed as protection against virus-induced cytopathic effect incubated for 5 days by MTT assay
# Assay type: functional, organism-based
# reported conditions: Human immunodeficiency virus 1, MT4, 120 h
Numbers only; they are read as nM.

>>> recorded_result("Cc1cc(-c2ccc(C#N)cc2)cc(C)c1Oc1nc(NC2CCN(Cc3ccc(OC(F)(F)F)cc3)CC2)ncc1CO")
479
>>> recorded_result("CNC(=O)c1ccc(CN2CCC(Nc3ncc(CO)c(Oc4c(C)cc(-c5ccc(C#N)cc5)cc4C)n3)CC2)cc1")
551

Reported EC50 for Cc1cn([C@H]2C[C@H](N=[N+]=[N-])[C@@H](CO)O2)c(=O)[nH]c1=O was 15

Reported EC50 for Cc1cc(-c2ccncc2)cc(C)c1Oc1nc(NC2CCN(Cc3ccc(C(=O)NCCO)cc3)CC2)ncc1CO was 2010

Reported EC50 for Cc1cc(-c2ccc(C#N)cc2)cc(C)c1Oc1nc(NC2CCN(Cc3ccccc3C#N)CC2)ncc1CO was 200

Reported EC50 for Cc1cc(-c2ccc(C#N)cc2)cc(C)c1Oc1nc(NC2CCN(Cc3ccc(C(=O)NCCCO)cc3)CC2)ncc1CO was 114

Reported EC50 for Cc1cc(-c2ccc(C#N)cc2)cc(C)c1Oc1nc(NC2CCN(Cc3ccc(S(C)(=O)=O)cc3)CC2)ncc1CO was 58

Reported EC50 for Cc1cc(-c2ccc(C#N)cc2)cc(C)c1Oc1nc(NC2CCN(Cc3cccc([N+](=O)[O-])c3)CC2)ncc1CO was 167

---

Listed next: entries and their corresponding pIC50.
# target entity: Human immunodeficiency virus type 1 reverse transcriptase (Human immunodeficiency virus 1)
# assay protocol: Inhibition of wildtype recombinant HIV-1 Reverse transcriptase incubated for 40 mins by spectrofluorometric analysis
pIC50 here is simply -log10 of the concentration when that concentration is written in mol/L.

Here's what some known entries look like.
>>> recorded_result("COCCNS(=O)(=O)c1ccc(CN2CCC(Nc3ncc(CO)c(Oc4c(C)cc(-c5ccc(C#N)cc5)cc4C)n3)CC2)cc1")
6.24
>>> recorded_result("Cc1cc(-c2ccncc2)cc(C)c1Oc1nc(NC2CCN(Cc3cccc(C(N)=O)c3)CC2)ncc1CO")
6.73

Reported pIC50 for Cc1cc(-c2ccc(C#N)cc2)cc(C)c1Oc1nc(NC2CCN(Cc3cccc(C#N)c3)CC2)ncc1CO was 6.58

Reported pIC50 for Cc1cc(-c2ccc(C#N)cc2)cc(C)c1Oc1nc(NC2CCN(Cc3ccc(S(N)(=O)=O)cc3)CC2)ncc1CO was 6.53

Reported pIC50 for Cc1cc(-c2ccc(C#N)cc2)cc(C)c1Oc1nc(NC2CCN(Cc3ccc(C(N)=O)cc3)CC2)ncc1CO was 6.58

---

# target entity: CYP2D6 (Homo sapiens, UniProt P10635)
# Sequence (P10635 whole entry): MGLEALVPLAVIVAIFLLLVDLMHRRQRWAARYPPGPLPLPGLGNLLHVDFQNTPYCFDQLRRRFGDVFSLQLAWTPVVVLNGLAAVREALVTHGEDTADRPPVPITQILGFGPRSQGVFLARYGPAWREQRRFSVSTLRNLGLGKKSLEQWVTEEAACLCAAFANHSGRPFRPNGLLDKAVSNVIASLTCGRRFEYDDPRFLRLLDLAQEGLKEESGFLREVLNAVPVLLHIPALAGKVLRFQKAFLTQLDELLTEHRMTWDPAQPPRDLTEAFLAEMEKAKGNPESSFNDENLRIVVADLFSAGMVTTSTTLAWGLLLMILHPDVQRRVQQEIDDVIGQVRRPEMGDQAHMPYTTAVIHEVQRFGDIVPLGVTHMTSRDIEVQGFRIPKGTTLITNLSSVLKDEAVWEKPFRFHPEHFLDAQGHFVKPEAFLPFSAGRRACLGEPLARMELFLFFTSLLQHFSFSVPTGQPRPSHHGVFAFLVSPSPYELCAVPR
# assay protocol: Inhibition of CYP2D6 in human liver microsome preincubated with compound for 10 minutes followed NADPH addition and measured after 15 mins by LC-MS/MS analysis
# Assay type: ADME, microsomes
# reported conditions: human, human liver microsomes
outcome measure: IC50 at 15 min

Reported IC50 at 15 min for N#Cc1ccc(Nc2ncc(CO)c(Oc3c(F)cc(-c4ccc(C#N)cc4)cc3F)n2)cc1 was > 25 µM

---

# assay protocol: Solubility of compound in phosphate buffer at pH 2 incubated for 24 hrs by HPLC analysis
# Assay type: physicochemical
Listed next: entries and their corresponding solubility at 24 h.
Numbers only; they are read as µg/mL.

>>> recorded_result("Cc1cc(C#N)cc(C)c1Oc1nc(Nc2ccc(C#N)cc2)nc(N)c1Br")
127

Consider the additional compound presented here.
Reported solubility at 24 h for Cc1cc(-c2ccc(C#N)cc2)cc(C)c1Oc1nc(NC2CCN(Cc3ccc(S(N)(=O)=O)cc3)CC2)ncc1CO was 3520
